Study conditions: buffer; pH 7.4; 6.0 h; 150.0 µM
The entries below come with measured log10(solubility kinetic) values attached.
Quantity kind: log10(solubility kinetic) (log10 of the value in µg/mL)

1. CCOc1ccc(CNC(=O)CCCn2nc(C)c3c(C)n(-c4ccc(C)cc4)nc3c2=O)cc1 ... 0.17
2. C[C@@H]1Cc2c([nH]c3cc(Cl)c(F)cc23)[C@]2(N1)C(=O)Nc1ccc(Cl)cc12 ... 1.12
3. CC(=O)c1c(C)[nH]c(C(=O)Nc2ccc(OCCCN(C)C)c(S(=O)(=O)Nc3ccc(Br)cc3)c2)c1C ... 1.59
4. CCc1ccc(NC(=O)c2cc3ncccn3n2)cc1 ... 0.83
5. C[S+](=O)([O-])c1ccc(-c2nc(C(=O)NCc3cccnc3)n3ccccc23)cc1 ... 1.06
6. CCOC(=O)[C@H]1O[C@@H]1C(=O)N[C@@H](CC(C)C)C(=O)NCCC(C)C ... 1.38
